system: F1*sub RNA substrate (template-directed ligation); assay: fraction ligated after 30 min (ligated reads / total reads); higher = more ligase activity; sequences stand for … in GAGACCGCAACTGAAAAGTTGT…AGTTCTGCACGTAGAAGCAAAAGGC; conditions: 42 °C

RECORD SEQUENCE	fraction ligated
TTCCTTGTCGTAAGAACTTTGGATGGGTTGA [3d307]	0.765
TATCACTTTCGTAAGACACTTTGATGGTTGA [3d1571]	0.0696
ACACTTTCGTAAGACACTTTGGATGGGTTGA [3d28]	0.0846
TATCACTTGTGTAAGACCTTGGATGGGTTGA [3d1772]	0.856
TATCACTTGCGTAAGACACTTTGGATGGTTA [3d1701]	0.227
TATCACTTGGTAAGACACTTGGATGGGTTGA [3d1592]	0.795
ATCACTTGTCGTAGAACTTTGGATGGGTTGA [3d201]	0.867
TATCACTTGTCGTAAGACCTTTGGAGGGTTG [3d2202]	0.0402
TATCACTTGTCGTAAACCTTTGGATGGTTGA [3d2071]	0.256
ATCACTTGTCGTAAGACATTTGGATGGGTTA [3d251]	0.66
ATCACTTGTTAAGACACTTTGGATGGGTTGA [3d156]	0.787

----------
# Lookup of reported fraction ligated keyed by entry
tested on: F1*sub RNA substrate (template-directed ligation); test: fraction ligated after 30 min (ligated reads / total reads); higher = more ligase activity; sequences stand for … in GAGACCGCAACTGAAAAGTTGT…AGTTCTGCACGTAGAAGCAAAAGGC; conditions: 42 °C
MEASUREMENT KIND: fraction ligated

RECORD SEQUENCE	ASSAY VALUE
TACACTTGTCGTAGACACTTTGGATGGGTTG [3d671]	0.514
TATCATTGCGTAAACACTTTGGATGGGTTGA [3d1160]	0.814
TATCACTTGTCGTAAGACACTTTGAGGGTTA [3d2265]	0.0074
TATCACTTGTCGTAAACATTTGGTGGGTTGA [3d2076]	0.0521
TATCTGTCGTAAGACACTTTGGATGGGTTGA [3d739]	0.775
TATCATTGTCGAAGACATTTGGATGGGTTGA [3d1206]	0.794

----------
tested on: F1*sub RNA substrate (template-directed ligation); experiment: fraction ligated after 30 min (ligated reads / total reads); higher = more ligase activity; sequences stand for … in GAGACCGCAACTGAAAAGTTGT…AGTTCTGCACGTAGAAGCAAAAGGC; conditions: 42 °C
# Lookup of reported fraction ligated keyed by entry

RECORD SEQUENCE	fraction ligated
TTACTTGTCGTAAGACATTTGGATGGGTTGA [3d290]	0.517
TATCCTTGTCGAAGAACTTTGGATGGGTTGA [3d1032]	0.772
TATCACTTTCGTAAGAACTTTGGTGGGTTGA [3d1542]	0.342
TATCACTTGTCTAAGCACTTTGGATGGGTTA [3d1854]	0.712
ACACTTGTCGTAAGACACTTTGATGGGTTGA [3d40]	0.0824
TATCACTTGTCTAGACACTTTGGATGGGTTG [3d1835]	0.76
ATACTTGTCGAAGACACTTTGGATGGGTTGA [3d53]	0.268
TATCACTTGCTAAGACCTTTGGATGGGTTGA [3d1604]	0.811
TATCACTTGTCGTAAGACCTTTGGATGGGTTA [2d267]	0.788
ATCACTTGTCGTAAGCACTTTGGATGGGTTGA [2d14]	0.782
TATCCTTGTCGTAAGACACTTTGGGGGTTGA [3d1110]	0.0067
TATCACTTGTCGTAAGACACTTGGGGGTTGA [3d2244]	0.0227
TATCACTTTCGTAGACACTTTGGTGGGTTGA [3d1514]	0.0546
TACACTTTCGTAAGACACTTTGGATGGGTTGA [2d51]	0.0483
TATCACTTGGTAAGACATTTGGATGGGTTGA [3d1591]	0.832
TATCACTTGTCGTAGAACTTTGATGGGTTGA [3d2015]	0.848
TACATGTCGTAAGACACTTTGGATGGGTTGA [3d547]	0.16
TATCACTTGTCGTAAGAACTTTGGAGGTTGA [3d2176]	0.0186
TATCATTGTCGTAAGACATTTGGATGGGTTG [3d1268]	0.766
TATCACTTGTGAAGACACTTTGGATGGGTTGA [2d180]	0.853
TATCACTTTGTAAGACACTTTGGAGGGTTGA [3d1475]	0.0352
TATCACTTGTGTAAGCCTTTGGATGGGTTGA [3d1755]	0.76
TATCCTTGTCGTAAGACATTTGGATGGTTGA [3d1094]	0.0378
TATCATTGCGTAAGACACTTTGGATGGGTTGA [2d111]	0.819

----------
system: F1*sub RNA substrate (template-directed ligation); experiment: fraction ligated after 30 min (ligated reads / total reads); higher = more ligase activity; sequences stand for … in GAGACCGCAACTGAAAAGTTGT…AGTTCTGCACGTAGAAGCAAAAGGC; details: 42 °C
# Lookup of reported fraction ligated keyed by entry
MEASUREMENT KIND: fraction ligated

RECORD SEQUENCE	ASSAY VALUE
TATCACTTGTCGTAAGACCTTTGGATGGGTT [3d2205]	0.744
ATCACTTGCGTAGACACTTTGGATGGGTTGA [3d143]	0.818
TCACTTGTCGTAAGACATTTGGATGGGTTGA [3d16]	0.782
ACACTTGTCGAAGACACTTTGGATGGGTTGA [3d32]	0.475
TATCACTTGCGTAAGACACTTTGGATGGGTTG [2d178]	0.825
TATCACTTGTCGTAAACACTTGGATGGGTTA [3d2086]	0.492
TATCACTTGCGTAAGCACTTTGGATGGGTTA [3d1657]	0.812
TATCACTTGTCGTAAGACTTTGGAGGGTTGA [3d2110]	0.0282
TATCATTGTCAAGACACTTTGGATGGGTTGA [3d1187]	0.783
TATCATTGTCGAAGACACTTTGGAGGGTTGA [3d1210]	0.0625
TATCACTGTCGTAAGACACTTTGGAGGGTTG [3d1459]	0.0454

----------
system: F1*sub RNA substrate (template-directed ligation); assay: fraction ligated after 30 min (ligated reads / total reads); higher = more ligase activity; sequences stand for … in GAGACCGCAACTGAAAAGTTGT…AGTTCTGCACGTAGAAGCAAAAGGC; details: 42 °C

RECORD SEQUENCE	EXPERIMENTAL TARGET	fraction ligated
TTCACTTGTCGTAAGACACTTGGATGGGTTG [3d490]	F1*sub RNA substrate (template-directed ligation)	0.288
TATCACTTGTCGTAGACACTTTATGGGTTGA [3d2042]	F1*sub RNA substrate (template-directed ligation)	0.128
TATCACTTGTCGAAGACACTTGGATGGGTTG [3d1963]	F1*sub RNA substrate (template-directed ligation)	0.794
TATCACTTGTCGTAGACACTTGGATGGGTTGA [2d227]	F1*sub RNA substrate (template-directed ligation)	0.803
TTCACTTGTCGTAAGAACTTGGATGGGTTGA [3d463]	F1*sub RNA substrate (template-directed ligation)	0.226
TTCCTTGTCGTAAGACCTTTGGATGGGTTGA [3d308]	F1*sub RNA substrate (template-directed ligation)	0.737

----------
tested on: F1*sub RNA substrate (template-directed ligation); assay: fraction ligated after 30 min (ligated reads / total reads); higher = more ligase activity; sequences stand for … in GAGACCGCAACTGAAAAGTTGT…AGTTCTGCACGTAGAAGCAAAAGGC; conditions: 42 °C
Assign Y whenever fraction ligated does not fall below 0.5; assign N whenever it does.

RECORD SEQUENCE	CLASS NAME
TATCATTGTCGTAAACACTTTGGATGGGTTA [3d1235]	N
TATCATTGTCGTAAGACACTTGATGGGTTGA [3d1270]	Y
TATCCTGTCGTAAGACACTTTGGATGGGTTG [3d967]	Y
TATCACTTGTCGTAAGAACTTGGTGGGTTGA [3d2161]	N
TATCACTTGTGTAAACACTTTGGAGGGTTGA [3d1750]	N
TATCACTTGTCGAAGACACTTTGGATGGTTA [3d1977]	N
TATCACTGGTAAGACACTTTGGATGGGTTGA [3d1327]	Y
TAACTTGTCGTAAACACTTTGGATGGGTTGA [3d516]	N
TACACTTGCGTAAACACTTTGGATGGGTTGA [3d605]	N
ATCACTTGTGTAAGACACTTTGGAGGGTTGA [3d167]	N
ATCACTTGTCGAAGACACTTTGGATGGTTGA [3d195]	Y
TACACTTGTGTAAGACACTTTGATGGGTTGA [3d626]	N
TATCACTTCGTAAGACACTTTGGATGGGTTGA [2d129]	Y
TATCACTTGTCGTGACACTTGGATGGGTTGA [3d1986]	Y
TATCACTGTCGTAAGACACTTTGGTGGGTTA [3d1455]	N
TATCACTTTCGTAAGACACTTTGATGGGTTG [3d1573]	Y
TATCACTTTCGTAAGACACTGGATGGGTTGA [3d1561]	Y
TATCACTTGTGTAAGACACTTTGGATGGTTGA [2d191]	N
TATACTTGTCTAAACACTTTGGATGGGTTGA [3d845]	Y
TATCACTTGTCTAAGACACTTTGATGGGTTG [3d1890]	Y
TTCCTTGTCGTAAACACTTTGGATGGGTTGA [3d305]	Y
TATCATTGTCTAAGACACTTTGGATGGGTTA [3d1199]	N
TATCACTGTCGTAGACATTTGGATGGGTTGA [3d1390]	Y
TATCACTTGTCGTAAACACTTTGGATGGTTG [3d2102]	N
